- Experiment summary: Clearance in Sprague-Dawley rat at 2 mg/kg, iv measured after 5 to 600 mins by LC-MS/MS analysis
- Type: ADME, organism-based
- Setup conditions: in vivo, time 5-600 min
Recorded endpoint: clearance (mL/min/kg)
Give bare numbers, in mL/min/kg.

Ask: In one line, give reported clearance of the entry Cc1cc(/C=C/C#N)cc(C)c1Oc1nc(Nc2ccc(C#N)cc2)nc2c1CSCC2 .
Result: 23

---

- Experiment summary: Acute toxicity in ig dosed Kunming mouse measured every day for 7 days
- Format: organism-based
- Setup conditions: in vivo, po, time 7 day
Recorded endpoint: LD50 at 168 h

Ask: In one line, give reported LD50 at 168 h of the entry Cc1cc(/C=C/C#N)cc(C)c1Oc1nc(Nc2ccc(C#N)cc2)nc2c1CSCC2 .
Result: > 1000 mg/kg

---

- Experiment summary: AUC(0 to infinity) in Sprague-Dawley rat at 2 mg/kg, iv measured after 5 to 600 mins by LC-MS/MS analysis
- Format: ADME, organism-based
- Set-up: route intravenous, time 5-600 min, dose 2 mg/kg
- Setup conditions: in vivo
Recorded endpoint: AUC(0-inf) (ng·h/mL)
Answers are plain numbers, in ng·h/mL.

Ask: In one line, give reported AUC(0-inf) of the entry Cc1cc(/C=C/C#N)cc(C)c1Oc1nc(Nc2ccc(C#N)cc2)nc2c1CSCC2 .
Result: 1510

---

- Experiment summary: Cytotoxicity against human MT4 cells assessed as reduction in cell viability by MTT assay
Recorded endpoint: log10(CC50) (log10 of the value in µM)
Reminder: these figures are log10 of reported CC50, in µM before transformation.

- Cc1cc(C#N)cc(C)c1Oc1nc(NC2CCN(Cc3cc(=O)[nH]c(=O)[nH]3)CC2)nc2c1CSCC2: 1.41
- Cc1cc(/C=C/C#N)cc(C)c1Oc1nc(NC2CCN(Cc3ccc(C(N)=O)cc3)CC2)nc2c1CSCC2: 1.27
- Cc1cc(/C=C/C#N)cc(C)c1Oc1nc(Nc2ccc(C#N)cc2)nc2c1CSCC2: 2.45

Could you tell me log10(CC50) for each of these compounds? They are listed below.
1. Cc1cc(/C=C/C#N)cc(C)c1Oc1nc(Nc2ccc(C#N)c(F)c2)nc2c1CSCC2
2. Cc1cc(/C=C/C#N)cc(C)c1Oc1nc(Nc2ccc(C#N)nc2)nc2c1CSCC2

Result:
1. 1.74
2. 2.04

---

Exercise: for every item that follows, state its recorded CC50.
- Experiment summary: Cytotoxicity against human MT4 cells assessed as reduction in cell viability by MTT assay
Numbers only, in µM.

In the examples that follow, each entry is paired with its recorded CC50.
* Cc1cc(/C=C/C#N)cc(C)c1Oc1nc(NC2CCN(Cc3cc(=O)[nH]c(=O)[nH]3)CC2)nc2c1CSCC2 | 23.2
* Cc1cc(C#N)cc(C)c1Oc1nc(Nc2ccc(C#N)nc2)nc2c1CSCC2 | 288
* Cc1cc(/C=C/C#N)cc(C)c1Oc1nc(NC2CCN(Cc3ccc(S(C)(=O)=O)cc3)CC2)nc2c1CSCC2 | 21.5
* Cc1cc(/C=C/C#N)cc(C)c1Oc1nc(NC2CCN(Cc3ccc([N+](=O)[O-])cc3)CC2)nc2c1CSCC2 | 59.5
* Cc1cc(C#N)cc(C)c1Oc1nc(NC2CCN(Cc3ccc(S(C)(=O)=O)cc3)CC2)nc2c1CSCC2 | 58

Could you tell me CC50 for each of these compounds? They are listed below.
1. Cc1cc(/C=C/C#N)cc(C)c1Oc1nc(NC2CCN(Cc3ccc(S(N)(=O)=O)cc3)CC2)nc2c1CSCC2
2. Cc1cc(/C=C/C#N)cc(C)c1Oc1nc(NC2CCN(Cc3cccc(C(N)=O)c3)CC2)nc2c1CSCC2
3. Cc1cc(C#N)cc(C)c1Oc1nc(Nc2ccc(C#N)cc2)nc2c1CSCC2
4. Cc1cc(/C=C/C#N)cc(C)c1Oc1nc(Nc2ccc(C#N)cn2)nc2c1CSCC2

Result:
15.1
9.45
202
246

Ask: In one line, give reported CC50 of the entry Cc1cc(C#N)cc(C)c1Oc1nc(Nc2ccc(C#N)c(F)c2)nc2c1CSCC2 .
Result: 269

---

- System under test: UniProt Q72547
pIC50: −log10 of the molar value.
Response key: met means pIC50 >= 7; not met means pIC50 < 7.

* Cc1cc(/C=C/C#N)cc(C)c1Oc1nc(NC2CCN(Cc3cc(=O)[nH]c(=O)[nH]3)CC2)nc2c1CSCC2 | not met
* Cc1cc(C#N)cc(C)c1Oc1nc(Nc2ccc(C#N)c(F)c2)nc2c1CSCC2 | met
* Cc1cc(/C=C/C#N)cc(C)c1Oc1nc(Nc2ccc(C#N)c(F)c2)nc2c1CSCC2 | met

Ask: Threshold query (pIC50 >= 7) on Cc1cc(C#N)cc(C)c1Oc1nc(Nc2ccc(C#N)nc2)nc2c1CSCC2
Result: met

Ask: Threshold query (pIC50 >= 7) on Cc1cc(/C=C/C#N)cc(C)c1Oc1nc(Nc2ccc(C#N)nc2)nc2c1CSCC2
Result: met

Ask: Threshold query (pIC50 >= 7) on Cc1cc(/C=C/C#N)cc(C)c1Oc1nc(NC2CCN(Cc3cccc(C(N)=O)c3)CC2)nc2c1CSCC2
Result: not met

Ask: Threshold query (pIC50 >= 7) on Cc1cc(/C=C/C#N)cc(C)c1Oc1nc(NC2CCN(Cc3ccc(C(N)=O)cc3)CC2)nc2c1CSCC2
Result: not met

---

- Experiment summary: AUC (0 to infinity) in Sprague-Dawley rat at 20 mg/kg, po measured after 15 to 720 mins by LC-MS/MS analysis
- Assay type: ADME, organism-based
- Parameters: route oral, time lower 15 min, dose 20 mg/kg, time upper 720 min
- Setup conditions: in vivo
Recorded endpoint: AUC(0-inf) (ng·h/mL)
Give bare numbers, in ng·h/mL.

Ask: In one line, give reported AUC(0-inf) of the entry Cc1cc(/C=C/C#N)cc(C)c1Oc1nc(Nc2ccc(C#N)cc2)nc2c1CSCC2 .
Result: 24

---

- Experiment summary: Tmax in Sprague-Dawley rat at 2 mg/kg, iv measured after 5 to 600 mins by LC-MS/MS analysis
- Assay type: ADME, organism-based
- Setup conditions: in vivo, time 5-600 min
Recorded endpoint: Tmax (min)
Numbers only, in min.

Ask: In one line, give reported Tmax of the entry Cc1cc(/C=C/C#N)cc(C)c1Oc1nc(Nc2ccc(C#N)cc2)nc2c1CSCC2 .
Result: 4.98

---

- Experiment summary: MRT (0 to infinity) in Sprague-Dawley rat at 20 mg/kg, po measured after 15 to 720 mins by LC-MS/MS analysis
- Format: ADME, organism-based
- Setup conditions: in vivo, time 15-720 min
Recorded endpoint: MRT inf (h)
One number for each entry, in h.

Ask: In one line, give reported MRT inf of the entry Cc1cc(/C=C/C#N)cc(C)c1Oc1nc(Nc2ccc(C#N)cc2)nc2c1CSCC2 .
Result: 2.9

---

- Experiment summary: Selectivity ratio of CC50 for human MT4 cells to IC50 for HIV1 RES056 infected in MT4 cells
Recorded endpoint: selectivity ratio

In the examples that follow, each entry is paired with its recorded selectivity ratio.
* Cc1cc(/C=C/C#N)cc(C)c1Oc1nc(NC2CCN(Cc3cc(=O)[nH]c(=O)[nH]3)CC2)nc2c1CSCC2 | 26
* Cc1cc(/C=C/C#N)cc(C)c1Oc1nc(Nc2ccc(C#N)c(F)c2)nc2c1CSCC2 | 408
* Cc1cc(/C=C/C#N)cc(C)c1Oc1nc(NC2CCN(Cc3ccc(C(N)=O)cc3)CC2)nc2c1CSCC2 | 495

Could you tell me selectivity ratio for each of these compounds? They are listed below.
1. Cc1cc(/C=C/C#N)cc(C)c1Oc1nc(NC2CCN(Cc3ccc([N+](=O)[O-])cc3)CC2)nc2c1CSCC2
2. Cc1cc(C#N)cc(C)c1Oc1nc(Nc2ccc(C#N)cc2F)nc2c1CSCC2
3. Cc1cc(C#N)cc(C)c1Oc1nc(NC2CCN(Cc3cc(=O)[nH]c(=O)[nH]3)CC2)nc2c1CSCC2
4. Cc1cc(C#N)cc(C)c1Oc1nc(Nc2ccc(C#N)c(F)c2)nc2c1CSCC2
5. Cc1cc(C#N)cc(C)c1Oc1nc(Nc2ccc(C#N)cn2)nc2c1CSCC2
6. Cc1cc(C#N)cc(C)c1Oc1nc(NC2CCN(Cc3ccc(S(N)(=O)=O)cc3)CC2)nc2c1CSCC2

Result:
[371, "> 1", 8, 1030, "> 1", "> 1850"]

---

- Experiment summary: Half life in Sprague-Dawley rat at 20 mg/kg, po measured after 15 to 720 mins by LC-MS/MS analysis
- Format: ADME, organism-based
- Setup conditions: in vivo, time 15-720 min
Recorded endpoint: half-life (h)
Numbers only, in h.

Ask: In one line, give reported half-life of the entry Cc1cc(/C=C/C#N)cc(C)c1Oc1nc(Nc2ccc(C#N)cc2)nc2c1CSCC2 .
Result: 2.02
